Where do the numbers come from? From patent US20210246166A1.

human MASP1 IC50: recorded values
Biological target: T1, Recombinant human MASP1 enzyme (fragment corresponding to amino acids 297-699, C-terminal His Tag) (human, UniProt P48740 297-699)
T1 sequence: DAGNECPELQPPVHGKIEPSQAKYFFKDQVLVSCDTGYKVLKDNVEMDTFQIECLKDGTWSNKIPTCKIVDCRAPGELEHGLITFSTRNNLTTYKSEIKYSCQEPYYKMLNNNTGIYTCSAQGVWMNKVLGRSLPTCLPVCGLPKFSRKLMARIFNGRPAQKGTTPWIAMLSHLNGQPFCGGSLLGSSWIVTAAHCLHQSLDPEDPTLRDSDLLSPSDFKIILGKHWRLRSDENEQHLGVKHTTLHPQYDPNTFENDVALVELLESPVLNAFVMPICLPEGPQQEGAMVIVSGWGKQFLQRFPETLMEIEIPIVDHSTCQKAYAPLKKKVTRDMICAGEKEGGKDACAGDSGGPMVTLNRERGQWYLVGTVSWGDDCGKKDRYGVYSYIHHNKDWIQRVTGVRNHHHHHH
Assay: cell-based or functional assay
Bridge positions count the residues as written; N and C are the ends. Square brackets hold non-standard residues; d marks the D form. Ends that are not written are not given here. * marks the point of attachment. (N,N-diMe)A = (N,N-diMe)A, L-N,N-dimethylalanine, C[C@@H](C(=O)*)N(C)C; tBuAla = CC(C)(C)C[C@H](N)C(=O)O; Pen = CC(C)(S)[C@H](N)C(=O)O; Sar = CNCC(=O)O

[
  {
    "Binder": "[(N,N-diMe)A]ICSRS[tBuAla]PPICIPD-NH2 (disulfide 3-11; N-terminus assumed; SMILES CC[C@H](C)[C@H](NC(=O)[C@H](C)N(C)C)C(=O)N[C@H]1CSSC[C@@H](C(=O)N[C@H](C(=O)N2CCC[C@H]2C(=O)N[C@@H](CC(=O)O)C(N)=O)[C@@H](C)CC)NC(=O)[C@H]([C@@H](C)CC)NC(=O)[C@@H]2CCCN2C(=O)[C@@H]2CCCN2C(=O)[C@H](CC(C)(C)C)NC(=O)[C@H](CO)NC(=O)[C@H](CCCNC(=N)N)NC(=O)[C@H](CO)NC1=O) [((N,N-diMe)A)-IC+SRS-((tBu)A)-PPIC+IPD-NH2]",
    "human MASP1 IC50, nM": 8.3
  },
  {
    "Binder": "[Sar]ICSRS[tBuAla]PPI[Pen]IPP-NH2 (disulfide 3-11; N-terminus assumed; SMILES CC[C@H](C)[C@H](NC(=O)CNC)C(=O)N[C@H]1CSSC(C)(C)[C@@H](C(=O)N[C@H](C(=O)N2CCC[C@H]2C(=O)N2CCC[C@H]2C(N)=O)[C@@H](C)CC)NC(=O)[C@H]([C@@H](C)CC)NC(=O)[C@@H]2CCCN2C(=O)[C@@H]2CCCN2C(=O)[C@H](CC(C)(C)C)NC(=O)[C@H](CO)NC(=O)[C@H](CCCNC(=N)N)NC(=O)[C@H](CO)NC1=O) [((N-Me)G)-IC+SRS-((tBu)A)-PPI-(Pen)+IPP-NH2]",
    "human MASP1 IC50, nM": 3.8
  }
]
